From: patent US10004732B2

molecular target: PI 3-kinase alpha (Homo sapiens, UniProt P42336); assay: Kinase Glo Luminescent Kinase Assay (Kglo), assay A; assay type: biochemical; settings: read-out: Assay A PI3Kα IC50
Sequence (P42336 whole entry): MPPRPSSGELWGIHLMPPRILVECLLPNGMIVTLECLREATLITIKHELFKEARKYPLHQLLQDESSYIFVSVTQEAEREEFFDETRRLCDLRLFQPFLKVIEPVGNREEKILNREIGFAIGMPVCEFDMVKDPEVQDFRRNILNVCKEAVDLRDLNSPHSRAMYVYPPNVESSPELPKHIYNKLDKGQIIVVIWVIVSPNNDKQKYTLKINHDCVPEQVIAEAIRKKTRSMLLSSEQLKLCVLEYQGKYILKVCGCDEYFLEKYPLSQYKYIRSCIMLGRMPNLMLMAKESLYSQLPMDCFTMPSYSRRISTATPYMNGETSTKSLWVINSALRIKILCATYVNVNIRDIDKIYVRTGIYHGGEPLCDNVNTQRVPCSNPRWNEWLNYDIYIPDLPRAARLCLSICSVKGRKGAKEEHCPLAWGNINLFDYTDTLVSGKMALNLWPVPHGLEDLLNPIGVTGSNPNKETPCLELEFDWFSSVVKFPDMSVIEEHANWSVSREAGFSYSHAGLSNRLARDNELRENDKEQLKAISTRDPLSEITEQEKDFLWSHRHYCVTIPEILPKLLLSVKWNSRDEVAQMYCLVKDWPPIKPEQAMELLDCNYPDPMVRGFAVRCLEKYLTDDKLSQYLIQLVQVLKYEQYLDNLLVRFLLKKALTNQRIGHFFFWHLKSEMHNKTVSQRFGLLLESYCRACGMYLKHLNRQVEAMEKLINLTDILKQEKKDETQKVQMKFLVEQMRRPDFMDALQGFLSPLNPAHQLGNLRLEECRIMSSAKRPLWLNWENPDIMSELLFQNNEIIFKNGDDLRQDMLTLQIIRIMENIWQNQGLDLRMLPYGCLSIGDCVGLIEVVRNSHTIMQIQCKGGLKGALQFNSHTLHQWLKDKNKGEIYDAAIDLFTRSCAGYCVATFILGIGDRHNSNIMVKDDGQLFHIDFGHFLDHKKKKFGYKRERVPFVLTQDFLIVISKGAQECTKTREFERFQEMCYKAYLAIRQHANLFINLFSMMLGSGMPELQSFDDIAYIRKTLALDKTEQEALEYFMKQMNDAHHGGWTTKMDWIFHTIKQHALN
Measurement kind: IC50 (nM)

Some solved cases for reference:
Q: Return reported IC50; argument: Cc1ccc(S(=O)(=O)NCCF)cc1-c1cnc(N)c(-n2cncn2)n1 [Example 127.28]
Result: 450

Q: Return reported IC50; argument: Cc1cc(F)c(S(=O)(=O)NCCC(C)(C)O)cc1-c1cnc(N)c(-n2cncn2)n1 [Example 116]
Result: 1200

Q: Return reported IC50; argument: Cc1ccc(S(=O)(=O)NC2CC3(CC(O)C3)C2)cc1-c1cnc(N)c(-n2cncn2)n1 (single isomer, unassigned) [Example 70b]
Result: 840

Q: Return reported IC50; argument: Cc1ccc(S(=O)(=O)NC2CC3(CC(O)C3)C2)cc1-c1cnc(N)c(-n2cncn2)n1 (stereo not drawn) [Example 67]
Result: 90

Q: Return reported IC50; argument: Cc1ccc(S(=O)(=O)NCCC2(O)CCCC2)cc1-c1cnc(N)c(-n2cncn2)n1 [Example 127.36]
Result: 190

1. Cc1ccc(S(=O)(=O)NCCC(C)(C)O)cc1-c1cnc(N)c(-c2cnc(Cl)cc2C)n1 [Example 119.9]
2. CC[C@@H](CO)NS(=O)(=O)c1ccc(C)c(-c2cnc(N)c(-c3ccnc(C)c3)n2)c1 [Example 129.6]
3. Cc1ccc(S(=O)(=O)NCCC(C)(C)O)cc1-c1cnc(N)c(-c2cnn(C)n2)n1 [Example 85]
4. Cc1ccc(S(=O)(=O)NCCC(C)(C)O)cc1-c1cnc(N)c(-c2cnn(Cc3ccccn3)c2)n1 [Example 119.37]
5. Cc1nnc(-c2nc(-c3cc(S(=O)(=O)N[C@H]4CC[C@H](O)CC4)ccc3C)cnc2N)o1 [Example 1]
Q: Please produce an ascending ranking of these compounds based on IC50. Thanks in advance for listing the labels in the requested order.
Result: 3, 4, 1, 2, 5
(3: 90 nM, 4: 180 nM, 1: 330 nM, 2: 740 nM, 5: 1300 nM)

A. Cc1ccc(S(=O)(=O)NCCC(C)(C)O)cc1-c1cnc(N)c(-c2c[nH]nc2C)n1 [Example 119.22]
B. Cc1ccc(S(=O)(=O)N[C@@H]2CCOC2)cc1-c1cnc(N)c(-n2cncn2)n1 [Example 127.20]
Q: Which value of IC50 is smaller, the one for A or the one for B ? Lab log: write the label of the selected item as the result.
Result: A
(A: 570 nM, B: 970 nM)
